# target under test: human α2β1 sGC isozyme (Homo sapiens, UniProt P33402+Q02153)
# assay name: cGMP assay in CHO-K1 cells stably expressing human α2β1 sGC isozyme
# experimental conditions: 10 μM DETA-NONOate
quantity kind: EC50

So the reported EC50 for Oc1nc(-c2cn3ccnc3c(Cc3cc(F)ccc3F)n2)ncc1F , on human α2β1 sGC isozyme (Homo sapiens, UniProt P33402+Q02153), turned out to be ≤ 100 nM

Oc1nc(-c2cn3ncnc3c(Cc3ccccc3F)n2)ncc1F tested on human α2β1 sGC isozyme (Homo sapiens, UniProt P33402+Q02153) gave EC50: 100 to 1000 nM

Item Cc1cc(F)c(Cc2nc(-c3ncc(F)c(O)n3)cn3ncnc23)cc1F was tested on human α2β1 sGC isozyme (Homo sapiens, UniProt P33402+Q02153); the reported EC50 is ≤ 100 nM

EC50 for human α2β1 sGC isozyme (Homo sapiens, UniProt P33402+Q02153) with input Oc1nc(-c2cn3c(F)cnc3c(Cc3cc(F)ccc3F)n2)ncc1F equals ≤ 100 nM

Test item Cc1cc(F)c(Cc2nc(-c3ncc(Cl)c(O)n3)cn3ccnc23)cc1F ; human α2β1 sGC isozyme (Homo sapiens, UniProt P33402+Q02153); reported EC50 was ≤ 100 nM

Log: human α2β1 sGC isozyme (Homo sapiens, UniProt P33402+Q02153), compound Oc1nc(-c2cn3ccnc3c(Cc3ccccc3F)n2)ncc1F , EC50 = ≤ 100 nM

----------
# assay name: Non-human primate CSF pharmacokinetics (Study A)
# Assay type: in vivo, Cynomolgus monkeys
# experimental conditions: female, cynomolgus monkey; NHP CSF (cisterna magna)/unbound plasma, PO 0.3 mg/kg, sodium salt
quantity kind: Kp uu at 24 h

Summary for this molecule, Oc1nc(-c2cn3ccnc3c(Cc3cc(F)ccc3F)n2)ncc1F : Kp uu at 24 h is 1 to 2

----------
# assay name: Rat cerebrospinal fluid (CSF) pharmacokinetics
# Format: in vivo
# experimental conditions: male, Sprague-Dawley; rat CSF/unbound plasma, PO 3 mg/kg
quantity kind: Kp uu at 4 h

Sure, the documented Kp uu at 4 h for Oc1nc(-c2cn3c(F)cnc3c(Cc3cc(F)ccc3F)n2)ncc1F is 2 to 3

The measured Kp uu at 4 h associated with Oc1nc(-c2cn3ccnc3c(Cc3cccc(F)c3F)n2)ncc1F reads 1 to 2

So, Oc1nc(-c2cn3ccnc3c(Cc3cc(F)ccc3F)n2)ncc1Cl ? Its Kp uu at 4 h was > 3

Sure, the documented Kp uu at 4 h for Cc1cc(F)c(Cc2nc(-c3ncc(F)c(O)n3)cn3ccnc23)cc1F is > 3

Looking up Oc1nc(-c2cn3ccnc3c(Cc3cc(F)ccc3F)n2)ncc1F , I found its Kp uu at 4 h recorded as 2 to 3

// sample Cc1cc(F)c(Cc2nc(-c3ncc(F)c(O)n3)cn3c(F)cnc23)cc1F , its Kp uu at 4 h was 1 to 2

Lab note: Oc1nc(-c2cn3ccnc3c(Cc3cccc(F)c3)n2)ncc1F gave Kp uu at 4 h of ≤ 1

----------
# assay name: Rat cerebrospinal fluid (CSF) pharmacokinetics
# Type: in vivo
# experimental conditions: male, Sprague-Dawley; rat CSF/unbound plasma, PO 10 mg/kg
quantity kind: Kp uu at 1 h

Kp uu at 1 h reading for Cc1cc(F)c(Cc2nc(-c3ncc(F)c(O)n3)cn3ccnc23)cc1F [Compound I-14] : > 3

For the next question, use this compound.
So for Oc1nc(-c2cn3ccnc3c(Cc3cc(F)ccc3F)n2)ncc1F [Compound I-20] , the logged Kp uu at 1 h turned out to be 1 to 2

----------
# assay name: Non-human primate CSF pharmacokinetics (Study A)
# Type: in vivo, Cynomolgus monkeys
# experimental conditions: female, cynomolgus monkey; NHP CSF (cisterna magna)/unbound plasma, PO 1 mg/kg, sodium salt
quantity kind: Kp uu at 24 h

Sure, the documented Kp uu at 24 h for Cc1cc(F)c(Cc2nc(-c3ncc(F)c(O)n3)cn3ccnc23)cc1F [Compound I-14] is > 3

----------
# System: sGC enzyme
# assay name: cGMP GloSensor cell-based assay, 384-well format (HEK293)
# Set-up: species or system human
# experimental conditions: HEK293 GloSensor 40F cGMP cells, 10 μM DETA-NONOate, geometrical mean; read-out: Glo EC50
pEC50: −log10 of the molar value.
Recorded pEC50 values for a group of molecules are listed next.

Item: Oc1nc(-c2cn3ccnc3c(Cc3cc(F)cc(F)c3)n2)ncc1F | pEC50: 6.00 to 7.00

Per the records, this molecule ( Cc1cc(F)c(Cc2nc(-c3ncc(F)c(O)n3)cn3ncnc23)cc1F ) has pEC50 equal to 6.00 to 7.00

Field pEC50 (entry Oc1nc(-c2cn3ccnc3c(Cc3cccc(F)c3)n2)ncc1F ) reads 6.00 to 7.00

More entries:
Measured pEC50, Oc1nc(-c2cn3ccnc3c(Cc3ccccc3F)n2)ncc1F : 6.00 to 7.00

For reference, reported pEC50 for Oc1nc(-c2cn3c(F)cnc3c(Cc3cc(F)ccc3F)n2)ncc1F stands at ≥ 7.00

The molecule identified as Oc1nc(-c2cn3ccnc3c(Cc3cc(F)ccc3F)n2)ncc1Cl registered its pEC50 at ≥ 7.00

Reported pEC50 for Cc1cnc(-c2cn3ccnc3c(Cc3ccccc3F)n2)nc1O was < 6.00

GET /value?item= Oc1nc(-c2cn3ccnc3c(Cc3cccc(F)c3F)n2)ncc1F &field=pEC50 returns 6.00 to 7.00

Sample Cc1cc(F)c(Cc2nc(-c3ncc(F)c(O)n3)cn3c(F)cnc23)cc1F ; pEC50 observed: ≥ 7.00

----------
Listing of entries alongside the reported Kp uu at 2 h.
# assay name: Rat cerebrospinal fluid (CSF) pharmacokinetics
# Type: in vivo
# experimental conditions: male, Sprague-Dawley; rat CSF/unbound plasma, PO 3 mg/kg

Noted for Oc1nc(-c2cn3ccnc3c(Cc3cccc(F)c3F)n2)ncc1F [Compound I-4] : its Kp uu at 2 h reads 1 to 2

Reported Kp uu at 2 h ( Oc1nc(-c2cn3ccnc3c(Cc3cc(F)ccc3F)n2)ncc1Cl [Compound I-16] ) = > 3

Continuing:
Entry Oc1nc(-c2cn3c(F)cnc3c(Cc3cc(F)ccc3F)n2)ncc1F [Compound I-5] — recorded Kp uu at 2 h = 2 to 3

// Kp uu at 2 h lookup, compound = Cc1cc(F)c(Cc2nc(-c3ncc(F)c(O)n3)cn3c(F)cnc23)cc1F [Compound I-18] , result: 1 to 2

Please fill in: Kp uu at 2 h reported for Cc1cc(F)c(Cc2nc(-c3ncc(F)c(O)n3)cn3ccnc23)cc1F [Compound I-14] = > 3

Value of Kp uu at 2 h reported for the compound Oc1nc(-c2cn3ccnc3c(Cc3cccc(F)c3)n2)ncc1F [Compound I-1] is 1 to 2

Recorded result, Oc1nc(-c2cn3ccnc3c(Cc3cc(F)ccc3F)n2)ncc1F [Compound I-20] , Kp uu at 2 h: 2 to 3

----------
# assay name: Rat cerebrospinal fluid (CSF) pharmacokinetics
# Type: in vivo
# experimental conditions: male, Sprague-Dawley; rat CSF/unbound plasma, PO 10 mg/kg
quantity kind: Kp uu at 2 h

What the record says about Oc1nc(-c2cn3ccnc3c(Cc3cc(F)ccc3F)n2)ncc1F [Compound I-20] : Kp uu at 2 h is 2 to 3

Turning now to a further record.
The reported Kp uu at 2 h of the molecule Cc1cc(F)c(Cc2nc(-c3ncc(F)c(O)n3)cn3ccnc23)cc1F [Compound I-14] was > 3

----------
# assay name: Non-human primate CSF pharmacokinetics (Study A)
# Format: in vivo, Cynomolgus monkeys
# experimental conditions: female, cynomolgus monkey; NHP CSF (cisterna magna)/unbound plasma, PO 1 mg/kg, sodium salt
quantity kind: Kp uu at 3 h

The compound listed as Cc1cc(F)c(Cc2nc(-c3ncc(F)c(O)n3)cn3ccnc23)cc1F shows Kp uu at 3 h equal to 2 to 3

----------
# target under test: human α2β1 sGC isozyme (Homo sapiens, UniProt P33402+Q02153)
# Sequence (P33402 1-732): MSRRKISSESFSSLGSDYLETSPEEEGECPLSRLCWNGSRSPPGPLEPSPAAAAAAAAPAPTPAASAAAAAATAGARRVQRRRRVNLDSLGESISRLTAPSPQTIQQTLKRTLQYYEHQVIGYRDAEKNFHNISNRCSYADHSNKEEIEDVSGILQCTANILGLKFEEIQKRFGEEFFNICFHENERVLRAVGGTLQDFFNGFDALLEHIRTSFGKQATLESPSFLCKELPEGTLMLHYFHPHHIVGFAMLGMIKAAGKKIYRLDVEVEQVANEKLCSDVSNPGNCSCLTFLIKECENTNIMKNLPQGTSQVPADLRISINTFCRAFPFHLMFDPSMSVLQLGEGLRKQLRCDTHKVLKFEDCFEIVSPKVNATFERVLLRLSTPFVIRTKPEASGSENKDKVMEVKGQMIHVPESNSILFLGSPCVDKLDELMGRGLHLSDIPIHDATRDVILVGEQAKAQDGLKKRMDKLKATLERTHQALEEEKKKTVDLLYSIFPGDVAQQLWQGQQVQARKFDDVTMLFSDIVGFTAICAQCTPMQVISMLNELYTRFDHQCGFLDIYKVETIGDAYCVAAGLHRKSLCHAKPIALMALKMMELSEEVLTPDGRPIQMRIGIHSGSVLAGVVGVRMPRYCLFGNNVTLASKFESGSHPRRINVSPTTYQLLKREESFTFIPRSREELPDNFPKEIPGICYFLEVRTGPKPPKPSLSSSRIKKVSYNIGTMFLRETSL
# Sequence (Q02153 1-619): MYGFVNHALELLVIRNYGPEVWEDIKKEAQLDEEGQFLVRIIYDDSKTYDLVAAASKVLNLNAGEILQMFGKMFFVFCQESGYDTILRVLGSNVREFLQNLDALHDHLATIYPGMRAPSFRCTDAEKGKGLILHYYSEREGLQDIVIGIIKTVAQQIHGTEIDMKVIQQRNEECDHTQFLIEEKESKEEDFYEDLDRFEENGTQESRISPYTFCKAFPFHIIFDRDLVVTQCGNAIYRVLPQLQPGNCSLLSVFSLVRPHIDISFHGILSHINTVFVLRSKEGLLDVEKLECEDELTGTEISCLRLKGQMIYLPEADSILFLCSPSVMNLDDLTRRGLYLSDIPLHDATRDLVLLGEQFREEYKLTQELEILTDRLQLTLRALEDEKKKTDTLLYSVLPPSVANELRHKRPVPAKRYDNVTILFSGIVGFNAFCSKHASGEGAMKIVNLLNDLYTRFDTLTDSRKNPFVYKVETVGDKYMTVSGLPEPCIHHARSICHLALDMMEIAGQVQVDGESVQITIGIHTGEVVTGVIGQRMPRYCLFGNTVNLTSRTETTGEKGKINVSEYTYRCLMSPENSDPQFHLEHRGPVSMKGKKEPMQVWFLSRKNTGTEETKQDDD
# assay name: cGMP assay in CHO-K1 cells stably expressing human α2β1 sGC isozyme
# experimental conditions: 10 μM DETA-NONOate
Quick reference for EC50 among some compounds

Noted for Cc1cc(F)c(Cc2nc(-c3ncc(F)c(O)n3)cn3c(F)cnc23)cc1F : its EC50 reads ≤ 100 nM

EC50 for Cc1cc(F)c(Cc2nc(-c3nccc(O)n3)cn3ccnc23)cc1F is 100 to 1000 nM
